meta.source: PubChem BioAssay AID588397

Experiment: qHTS of small molecules that selectively kill Giardia lamblia: Hit Validation.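 Also: viability measured as ATP content by luminescence so killing lowers signal; trophozoites exposed to compounds for 48 h anaerobically at 37 °C; nearly all actives have a fitted effect of over 65% in size.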
Settings: Giardia lamblia trophozoite viability, dose-response; series mostly up to 38.3 µM
The campaign covered roughly 1,300 compounds. About 1,000 (77%) were called active. Inconclusive results (about 7%) are left out. Calls follow the shape of the dose curve; as a rule, active = well fitted inhibition curve with a large enough effect; inconclusive = small, poorly fitted or top-dose-only effect; inactive = no such curve, though single readings can be large or run the other way. So high a share suggests a set chosen from earlier hits. Some of the results follow.
Could you please pick one outcome from this set? active, inactive

Req: Given `COc1ccc(/C=C/c2ccc3ccccc3n2)cc1OC` , state the outcome it received in this test.
Resp: active

Req: Hey, what did the test say about `Clc1ccc2oc(-c3ccccc3)cc(=NCCCN3CCOCC3)c2c1` ?
Resp: active

Req: State the result this test recorded for `Cc1ncc([N+](=O)[O-])n1CCN1C(=O)c2ccccc2C1=O` .
Resp: active

Req: Each compound tested received a call. Report the one for `O=[N+]([O-])c1ccc(CN2CCN(c3ccccc3Cl)CC2)o1` .
Resp: active

Req: Assay outcome for `CC1=NN(c2nc3ccccc3[nH]2)C(=O)/C1=C/N(C)C` : what was it?
Resp: active

Further cases:
Req: Test call for this compound, please: `Cc1nonc1OCCn1c([N+](=O)[O-])cnc1C`
Resp: active

Req: For `O=C(/C=C/c1ccc([N+](=O)[O-])s1)N1CCCC1` , what call appears in the results of this test?
Resp: active

Req: Hello, I am checking results. What call was entered for `O=C(/C=C/c1ccc([N+](=O)[O-])s1)N1CCCCC1` ?
Resp: active

Req: Fill in: this test's call for `CCOC(=O)N=Nc1c2ccccc2c2nc3no[nH]c3nc12` is ___
Resp: active

Req: Fill in: this test's call for `Cc1ccc(NC(=O)Cn2cnc([N+](=O)[O-])c2)cc1C` is ___
Resp: active

Req: What call does the record list for `CC1(C)CC(N=c2cc(-c3ccccc3)oc3ccc(Cl)cc23)CC(C)(C)N1` ?
Resp: active

Req: Could you kindly confirm the outcome this assay logged for `O=C(/C=C/c1ccc([N+](=O)[O-])s1)N1CCN(c2ccccc2)CC1` ?
Resp: active

Req: Which outcome was entered for the compound `COc1ccc(C(=O)c2c3ccc(C(F)(F)F)cc3[n+]([O-])n2CCCN)cc1` in this test?
Resp: active

Req: Give the logged outcome of this assay for the following compound: `CCOc1cc(C=O)ccc1OCCn1c([N+](=O)[O-])cnc1C`
Resp: active

Req: Please state the recorded outcome for this compound: `CN(C)CCCN=c1cc(-c2ccccc2)oc2ccc(Cl)cc12`
Resp: active

Req: // return assay outcome for `CCS(=O)(=O)CCn1c([N+](=O)[O-])cnc1C`
Resp: active

Req: How did this test come out for `Cc1ccc(C(=O)c2c3ccc(C(F)(F)F)cc3[n+]([O-])n2CCCN)cc1` ?
Resp: active

Req: Recorded test outcome, item `COc1ccc(/C=C/c2ccc3ccccc3n2)c(OC)c1`
Resp: active

Req: Check the results log: what was the call for `NCCCn1c(C(=O)c2cc(Cl)c(N)c(Cl)c2)c2ccc(C(F)(F)F)cc2[n+]1[O-]` ?
Resp: active

Req: Lab log entry: `O=[N+]([O-])c1ccc(N=NN(CCO)CCO)cc1` — outcome as called in the assay?
Resp: active
